Just for reference, patent US6897227B2 is where these values come from.

Protocol Text: Stability in plasma at 37° C. (gradient HPLC-UV), human plasma
Assay type: in vitro ADME
Parameter: half-life (h)
All answers are understood in h, so give the number only.

// half-life value for CCC(Oc1ccc(S(=O)(=O)n2c([S+]([O-])Cc3nccc(OCC(F)(F)F)c3C)nc3ccccc32)cc1)C(=O)[O-].[Na+] (stereo not drawn) [Compound 4 Na salt] : 1

// half-life value for Cc1c(OCC(F)(F)F)ccnc1C[S+]([O-])c1nc2ccccc2n1S(=O)(=O)c1ccc(OCC(=O)[O-])c(OCC(=O)[O-])c1.[Na+].[Na+] (stereo not drawn) [Compound 12] : 0.85

// half-life value for Cc1cc(OCC(=O)NCCCCCC(=O)[O-])cc(C)c1S(=O)(=O)n1c([S+]([O-])Cc2nccc(OCC(F)(F)F)c2C)nc2ccccc21.[Na+] (stereo not drawn) [Compound 6] : 1

----------
Protocol Text: Aqueous solubility (water / distilled water)
Assay type: physicochemical
Applied Conditions: free carboxylic acids
Documented solubility across a set of compounds

- Compound: "Cc1c(OCC(F)(F)F)ccnc1C[S+]([O-])c1nc2ccccc2n1S(=O)(=O)c1ccc(OCC(=O)[O-])cc1.[Na+] (centres unmarked) [Compound 2]"
  solubility: "> 100 µg/mL"

Could you now consider this next compound?
// solubility value for COc1ccc2c(c1)nc([S+]([O-])Cc1ncc(C)c(OC)c1C)n2S(=O)(=O)c1ccc(OCC(=O)[O-])cc1.[Na+] (centres unmarked) [Compound 9] : > 100 µg/mL

----------
Protocol Text: Stability in plasma at 37° C. (gradient HPLC-UV), rat plasma
Format: in vitro ADME
Documented half-life across a set of compounds
All answers are understood in min, so give the number only.

Worked cases, half-life given:
- Compound: "Cc1cc(OCC(=O)NCCCCCC(=O)[O-])cc(C)c1S(=O)(=O)n1c([S+]([O-])Cc2nccc(OCC(F)(F)F)c2C)nc2ccccc21.[Na+] (centres unmarked)"
  Result Number: 52
- Compound: "CCC(Oc1ccc(S(=O)(=O)n2c([S+]([O-])Cc3nccc(OCC(F)(F)F)c3C)nc3ccccc32)cc1)C(=O)[O-].[Na+] (centres unmarked) [Compound 4 Na salt]"
  Result Number: 98

// half-life value for Cc1cc(OCC(=O)[O-])cc(C(C)C)c1S(=O)(=O)n1c([S+]([O-])Cc2nccc(OCC(F)(F)F)c2C)nc2ccccc21.[Na+] (centres unmarked) : 317

// half-life value for Cc1ccc(C(=O)[O-])cc1S(=O)(=O)n1c([S+]([O-])Cc2nccc(OCC(F)(F)F)c2C)nc2ccccc21.[Na+] (centres unmarked) : 14

// half-life value for Cc1c(OCC(F)(F)F)ccnc1C[S+]([O-])c1nc2ccccc2n1S(=O)(=O)c1cccc(C(=O)O)c1 (centres unmarked) : 14

// half-life value for Cc1cc(OCC(=O)[O-])cc(C)c1S(=O)(=O)n1c([S+]([O-])Cc2nccc(OCC(F)(F)F)c2C)nc2ccccc21.[Na+] (centres unmarked) : 31

// half-life value for COc1ccc(S(=O)(=O)n2c([S+]([O-])Cc3nccc(OCC(F)(F)F)c3C)nc3ccccc32)cc1CCC(=O)[O-].[Na+] (centres unmarked) : 19

// half-life value for Cc1c(OCC(F)(F)F)ccnc1C[S+]([O-])c1nc2ccccc2n1S(=O)(=O)c1ccc(OCC(=O)NCCCC(=O)[O-])cc1C(C)C.[Na+] (centres unmarked) : 53
